# Tested system: PaSSB (Pseudomonas aeruginosa PAO1, UniProt P40947 1-165)
# Test method notes: EMSA; monomer conc.; 1 complex; 20 mM Tris-HCl pH 8.0, 100 mM NaCl, 25°C 30 min, 1.7 nM DNA, protein 0-5000 nM; native 8% PAGE in TBE at 4°C
# Applied conditions: protein: recombinant; tags: none (untagged); chain copies: 4; label: 5' 32P
Measured attribute: apparent K (half saturation) (nM)

| Binder | Unit spec | Numeric value |
| --- | --- | --- |
| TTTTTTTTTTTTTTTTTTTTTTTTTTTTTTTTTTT (ssDNA) [dT35] | nM | 950 |
| TTTTTTTTTTTTTTTTTTTTTTTTT (ssDNA) [dT25] | nM | 1700 |
| dT55 (ssDNA) DNA: TTTTTTTTTTTTTTTTTTTTTTTTTTTTTTTTTTTTTTTTTTTTTTTTTTTTTTT | nM | 820 |
| TTTTTTTTTTTTTTTTTTTTTTTTTTTTTTTTTTTTTTTTTTTTT (ssDNA) [dT45] | nM | 780 |
